Measured HI values are reported for all entries that follow.
# METHOD SUMMARY: Toxicity in rabbit RBC assessed as hemolytic index
# Format: cell-based, Oryctolagus cuniculus
# CONDITION LABEL: erythrocyte
READOUT: HI

1) CC(C)C(C)C(=O)C[C@@](C)(O)[C@H]1CC[C@H]2[C@@H]3C[C@H](OC4O[C@H](C)[C@@H](O)[C@H](OC5OC[C@@H](OC6O[C@H](CO)[C@H](O)[C@H](O)[C@H]6OC6O[C@H](C)[C@H](O)[C@H](OC7O[C@H](C)[C@H](O)[C@H](O)[C@H]7O)[C@H]6O)[C@H](O)[C@H]5OC5O[C@H](C)[C@@H](O)[C@H](O)[C@H]5O)[C@H]4O)[C@H]4C[C@@H](OS(=O)(=O)[O-])CC[C@]4(C)C3=CC[C@@]21C.[Na+] (some centres not stated) ... 21500
2) CC(C)CC(=O)C[C@@](C)(O)[C@H]1CC[C@H]2[C@@H]3C[C@H](O[C@@H]4O[C@H](C)C(=O)[C@H](OC5O[C@H](C)[C@@H](OC6O[C@H](C)[C@H](O)[C@H](O)[C@H]6OC6O[C@H](C)[C@H](O)[C@H](O)[C@H]6O)[C@H](O)[C@H]5OC5O[C@H](C)[C@@H](O)[C@H](O)[C@H]5O)[C@H]4O)[C@H]4C[C@@H](OS(=O)(=O)[O-])CC[C@]4(C)C3=CC[C@@]21C.[Na+] (some centres not stated) ... 17700

meta.source: ChEMBL document CHEMBL1151633
